Where these numbers come from: PubChem BioAssay AID1159580

assayName: chemical genetic growth profiling, strain panel (AID 1159580);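 note: tested at 20 µM; growth read once vehicle control cultures reached saturation at 30 °C; 1 = growth at the plate median or of vehicle wells; lower values mean less growth of the strain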
experimentalSetup: S. cerevisiae deletion strains, growth OD, locus YNL248C, strain rpa49, stronger effect = lower value
About 2,000 (36%) of roughly 5,500 compounds were called active. Inconclusive results (about 18%) are left out. This is one part of the list.
parameterMeasured: normalized growth
Form rule: numeric answer, no unit written next to it.

# query: normalized growth of entry CC1OC(O[C@H]2/C=C/C=C/C=C/C=C/C=C/C=C/C=C/[C@H](C)[C@@H](O)[C@@H](C)[C@H](C)OC(=O)CC(O)CC(O)CCC(O)C(O)CC(O)C[C@]3(O)C[C@H](O)C(C(=O)O)C(C2)O3)C(O)[C@H](N)C1O (some centres not stated)
0.0699

Also need NCC[C@@H](O)C(=O)N[C@@H]1C[C@H](N)[C@@H](O[C@H]2O[C@H](CN)[C@@H](O)[C@H](O)[C@H]2O)[C@H](O)[C@H]1O[C@H]1O[C@H](CO)[C@@H](O)[C@H](N)C1O (some centres not stated) , thanks.
0.984

Also need Nc1nc(F)nc2c1ncn2[C@@H]1O[C@H](COP(=O)(O)O)[C@@H](O)[C@@H]1O , thanks.
0.996

Also need C1N2CN3CN1CN(C2)C3 , thanks.
0.982

Also need C=C[C@@]1(C)CC(=O)[C@@]2(O)[C@](C)(O1)[C@@H](OC(C)=O)[C@@H](O)C1C(C)(C)CC[C@H](O)[C@@]12C (some centres not stated) , thanks.
0.919

Also need CC(C)=CC1C(C(=O)OCc2cccc(Oc3ccccc3)c2)C1(C)C (configuration not stated) , thanks.
0.994

Also need C=CCS(=O)C[C@H](N)C(=O)O (some centres not stated) , thanks.
1

----------
assayName: chemical genetic growth profiling, strain panel (AID 1159580);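 note: tested at 20 µM; growth read once vehicle control cultures reached saturation at 30 °C; 1 = growth at the plate median or of vehicle wells; lower values mean less growth of the strain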
experimentalSetup: S. cerevisiae deletion strains, growth OD, locus YMR129W, stronger effect = lower value
Among all 5,500 compounds or so, about 2,000 (36%) were called active. About 18% were inconclusive and are not listed. The list shows a part of the results.
Task for the reader: assign each of the following compounds its reported normalized growth.
Form rule: numeric answer, no unit written next to it.

# query: normalized growth of entry CC(C)(S)[C@@H](N)C(=O)O
0.996

Also need Cc1cccc(C)c1NC(=O)C1CCCCN1C (stereo not drawn) , thanks.
0.995

Also need C[C@]12CCC3c4ccc(O)cc4CCC3C1CCC2=O (stereo partly drawn) , thanks.
1.02

Also need NC1(C(=O)O)CC1 , thanks.
1.02

Also need NC(N)=NCCCCN=C(N)N , thanks.
1

Also need Cc1oncc1C(=O)Nc1ccc(C(F)(F)F)cc1 , thanks.
0.978

Also need CC1(C)N([O-])[N+](=O)C1(C)Br (stereo not drawn) , thanks.
0.992

Also need O=C(O)CCCCCCCC(=O)O , thanks.
1.01

Also need NC1(C(=O)O)CCCC1 , thanks.
1.02

Also need CC(=O)O[C@@H]1CC2C(C)(C)C(=O)C3OC3[C@]2(C)C2CC[C@@]3(C)[C@H](c4ccoc4)OC(=O)C4OC43[C@@]21C (stereo partly drawn) , thanks.
0.987

Also need Clc1ccc(CO/N=C(/Cn2ccnc2)c2ccc(Cl)cc2Cl)c(Cl)c1 , thanks.
0.0624

Also need COc1ccc2oc3ccccc3c(=O)c2c1 , thanks.
0.95

Also need NCCCCC(=O)O , thanks.
1.02

Also need COc1ccc(CCC(=O)c2c(O)cc(O[C@@H]3O[C@H](CO)C(O)[C@H](O)C3O[C@@H]3O[C@@H](C)[C@H](O)[C@@H](O)[C@H]3O)cc2O)cc1O (stereo partly drawn) , thanks.
1.02

Also need CC(=O)O[C@@H]1CC2C(C)(C)[C@H](O)C=C[C@]2(C)C2CC[C@@]3(C)[C@H](c4ccoc4)OC(=O)C4OC43[C@@]21C (stereo partly drawn) , thanks.
1.01

Also need N[C@@H](C(=O)O)[C@@H](O)[C@H](O)[C@H](O)CO , thanks.
1.03

Also need c1ccc2c(CC3=NCCN3)cccc2c1 , thanks.
0.96

Also need NC(N)=NCCN1CCCCCCC1 , thanks.
1.02

Also need CC1(C)C(=O)[C@@H]2O[C@@H]2[C@@]2(C)C1C[C@@H](O)[C@]1(C)C2CC[C@@]2(C)[C@H](c3ccoc3)OC(=O)C3OC321 (stereo partly drawn) , thanks.
1

Also need CN(C)CCC(c1ccccc1)c1ccccn1 (stereo not drawn) , thanks.
1.01

Also need CC1CCC(NC(=O)N(CCCl)N=O)CC1 (stereo not drawn) , thanks.
0.0909

Also need COc1ccc(-c2oc3cc(OC)c(OC)c(OC)c3c(=O)c2OC)cc1OC , thanks.
0.976

Also need C[C@]12C=CC(=O)C=C1CCC1C2[C@@H](O)C[C@@]2(C)C1CC[C@]2(O)C(=O)CO (stereo partly drawn) , thanks.
0.993
